The reported numbers originate from paper PMC6691843.

Ki data for VchCAβ (Vibrio cholerae, UniProt A0A086SLX8) follow.
Entry rule: numbers only, all in µM.

Quote VchCAβ (Vibrio cholerae, UniProt A0A086SLX8) Ki for entry NS(=O)(=O)c1ccc(C(=O)N2CCC(c3ccccc3)CC2)cc1 [7a] .
3.31

Further cases:
Provide Ki, system VchCAβ (Vibrio cholerae, UniProt A0A086SLX8), entry CC(=O)C1(c2ccccc2)CCN(C(=O)c2ccc(S(N)(=O)=O)cc2)CC1 [7f]
6.61

Name the value of Ki reported for NS(=O)(=O)c1ccc(C(=O)N2CCN(c3ccccc3)CC2)cc1 [8d] when tested on VchCAβ (Vibrio cholerae, UniProt A0A086SLX8).
Sequence (A0A086SLX8 entry or part of it): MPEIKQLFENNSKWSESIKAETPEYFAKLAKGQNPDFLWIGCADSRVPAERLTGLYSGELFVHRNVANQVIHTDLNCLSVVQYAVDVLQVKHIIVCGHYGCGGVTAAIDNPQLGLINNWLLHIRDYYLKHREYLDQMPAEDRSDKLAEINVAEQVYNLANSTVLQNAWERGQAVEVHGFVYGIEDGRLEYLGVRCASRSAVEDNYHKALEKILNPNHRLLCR
4.16

Give Ki only, for NS(=O)(=O)c1ccc(C(=O)N2CCN(Cc3ccc(F)cc3)CC2)cc1 [8b] , using VchCAβ (Vibrio cholerae, UniProt A0A086SLX8) data.
5.01

Fetch value of Ki on VchCAβ (Vibrio cholerae, UniProt A0A086SLX8) for N#CC1(c2ccccc2)CCN(C(=O)c2ccc(S(N)(=O)=O)cc2)CC1 [7e] .
0.806

Given NS(=O)(=O)c1ccc(C(=O)N2CCC(O)(c3ccc(Br)cc3)CC2)cc1 [7d] , report its Ki on VchCAβ (Vibrio cholerae, UniProt A0A086SLX8).
2.78

Lab note: record Ki of NS(=O)(=O)c1ccc(C(=O)N2CCN(C(c3ccccc3)c3ccccc3)CC2)cc1 [8c] tested on VchCAβ (Vibrio cholerae, UniProt A0A086SLX8).
4.82

Using VchCAβ (Vibrio cholerae, UniProt A0A086SLX8) as the test system, report measured Ki of NS(=O)(=O)c1ccc(C(=O)N2CCC(O)(c3ccccc3)CC2)cc1 [7b] .
3.71

# return Ki of NS(=O)(=O)c1ccc(C(=O)N2CCC(O)(c3ccc(Cl)cc3)CC2)cc1 [7c] (system: VchCAβ (Vibrio cholerae, UniProt A0A086SLX8))
3.94

Give Ki for NS(=O)(=O)c1ccc(C(=O)N2CCC(Cc3ccccc3)CC2)cc1 [5e] tested on VchCAβ (Vibrio cholerae, UniProt A0A086SLX8).
3.75
